test system: STK16; settings: concentration: 1 μM, replicates: in singlicate; n = 1;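 also: KINOMEscan kinase panel screen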
Can you tell me %Inh for the items I'm about to list?
Answers are plain numbers, in %.

Use the examples below as a reference point.
> print(dat)
                                   compound  assayed.system  numeric.value
1  NCCCC(NC(=O)c1cc(Br)c(-c2ccnc3[nH]ccc23)s1)c1ccccc1.O=C(O)C(F)(F)F.O=C(O)C(F)(F)F (stereo not shown) [GSK1287544]           STK16             60
2  Cl.c1ccc(-c2ccc3c(Nc4ccc5[nH]ccc5c4)ccnc3c2)nc1 [GW440138]           STK16              0
3  CC(=O)N1CCN(c2ccc(Nc3nccc(-c4sc(C(C)C)nc4-c4cccc(NS(=O)(=O)c5cccc(Cl)c5)c4)n3)cn2)CC1 [GSK1660437]           STK16              0
4  Cc1ccc(C)c(NC(=O)NC2CCN(c3ccnc(Nc4ccc(F)cc4)n3)C2)c1 (stereo not shown) [GSK1379720]           STK16              0
5  Cc1occc1-c1ncc(OC[C@@H](N)Cc2c[nH]c3ccccc23)cc1-c1ccc2[nH]nc(C)c2c1.O=C(O)C(F)(F)F [GSK682037]           STK16              0
6  Nc1ncnc2c1nc(-c1ccccc1)n2-c1ccccc1 [SKF-97293]           STK16              0
7  Cc1cccc(Nc2nc(N[C@H]3CCNC3)ncc2C(N)=O)c1.Cl [GSK2197149]           STK16             12
8  COC(=O)Nc1nc2ccc(Oc3ccc(NC(=O)Nc4cc(C(F)(F)F)ccc4F)cc3)cc2n1C.Cl [GW692089]           STK16              0

Batch of 6 compounds: report %Inh for each.
1. O=C(Nc1cccc(-c2nn3ncccc3c2-c2ccnc(Nc3ccccc3)n2)c1)c1c(F)cccc1F [GSK198271]
2. O=C(Nc1ccccc1F)NC1CCN(c2ccnc(Nc3ccc(F)cc3)n2)CC1 [GSK1379800]
3. COc1cc(Nc2nccc(N3CCC(NC(=O)c4cc5ccccc5s4)C3)n2)cc(OC)c1OC (stereo not shown) [GSK1379760]
4. CC(=O)Nc1nc2cnc(Nc3cc(NC(=O)c4cccc(C5(C#N)CC5)c4Cl)ccc3C)nc2s1
5. CN(C)Cc1ccc(-c2ccc3c(Nc4ccc(Oc5ccccn5)cc4)ccnc3c2)o1 [GW567148]
6. COc1cc(Nc2nccc(N3CCC(NC(=O)Nc4cccc(C(C)=O)c4)C3)n2)cc(OC)c1OC (stereo not shown) [GSK1379753]

(A)
[7, 16, 10, 11, 0, 83]

# batch size: 2; output %Inh per entry
1. Nc1ncc(-c2ccc3nccc(-c4ccncc4)c3c2)cc1S(=O)(=O)N1CCOCC1 [GSK1627798]
2. O=C(NC1CCN(c2ccnc(Nc3ccc(F)cc3)n2)C1)c1cc2ccccc2s1 (stereo not shown) [GSK1379716]

(A)
[22, 15]

src = paper PMC5540273
